Biological target: PI3Kβ (Homo sapiens (Human), UniProt P42338)
Sequence (P42338 whole entry): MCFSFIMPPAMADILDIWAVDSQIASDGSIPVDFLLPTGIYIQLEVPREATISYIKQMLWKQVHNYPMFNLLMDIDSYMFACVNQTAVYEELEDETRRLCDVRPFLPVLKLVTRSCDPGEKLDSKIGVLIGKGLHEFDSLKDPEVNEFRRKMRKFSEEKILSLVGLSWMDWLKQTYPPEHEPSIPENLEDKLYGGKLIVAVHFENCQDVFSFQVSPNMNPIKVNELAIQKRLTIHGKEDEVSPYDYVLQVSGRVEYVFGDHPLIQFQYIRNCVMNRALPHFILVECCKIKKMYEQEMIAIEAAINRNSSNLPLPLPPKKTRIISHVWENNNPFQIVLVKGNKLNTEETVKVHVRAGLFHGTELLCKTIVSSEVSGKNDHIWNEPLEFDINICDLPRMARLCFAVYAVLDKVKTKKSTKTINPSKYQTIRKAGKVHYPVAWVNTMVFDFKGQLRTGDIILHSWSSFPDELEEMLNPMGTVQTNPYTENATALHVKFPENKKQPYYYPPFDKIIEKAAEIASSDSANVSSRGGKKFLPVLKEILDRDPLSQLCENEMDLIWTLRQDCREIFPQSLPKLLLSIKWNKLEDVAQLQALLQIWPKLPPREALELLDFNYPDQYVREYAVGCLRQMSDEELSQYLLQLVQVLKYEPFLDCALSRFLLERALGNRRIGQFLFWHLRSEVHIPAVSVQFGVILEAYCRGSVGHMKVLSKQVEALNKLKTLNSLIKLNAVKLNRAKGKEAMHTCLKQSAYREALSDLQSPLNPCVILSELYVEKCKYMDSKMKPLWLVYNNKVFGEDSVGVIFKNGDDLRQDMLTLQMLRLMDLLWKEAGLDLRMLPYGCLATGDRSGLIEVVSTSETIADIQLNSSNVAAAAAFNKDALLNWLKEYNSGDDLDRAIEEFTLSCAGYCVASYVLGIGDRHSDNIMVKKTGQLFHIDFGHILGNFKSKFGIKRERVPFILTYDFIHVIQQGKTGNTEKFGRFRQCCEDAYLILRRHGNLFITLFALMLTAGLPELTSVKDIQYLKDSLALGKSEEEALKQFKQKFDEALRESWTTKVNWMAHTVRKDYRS
Sequence (P27986 whole entry partner): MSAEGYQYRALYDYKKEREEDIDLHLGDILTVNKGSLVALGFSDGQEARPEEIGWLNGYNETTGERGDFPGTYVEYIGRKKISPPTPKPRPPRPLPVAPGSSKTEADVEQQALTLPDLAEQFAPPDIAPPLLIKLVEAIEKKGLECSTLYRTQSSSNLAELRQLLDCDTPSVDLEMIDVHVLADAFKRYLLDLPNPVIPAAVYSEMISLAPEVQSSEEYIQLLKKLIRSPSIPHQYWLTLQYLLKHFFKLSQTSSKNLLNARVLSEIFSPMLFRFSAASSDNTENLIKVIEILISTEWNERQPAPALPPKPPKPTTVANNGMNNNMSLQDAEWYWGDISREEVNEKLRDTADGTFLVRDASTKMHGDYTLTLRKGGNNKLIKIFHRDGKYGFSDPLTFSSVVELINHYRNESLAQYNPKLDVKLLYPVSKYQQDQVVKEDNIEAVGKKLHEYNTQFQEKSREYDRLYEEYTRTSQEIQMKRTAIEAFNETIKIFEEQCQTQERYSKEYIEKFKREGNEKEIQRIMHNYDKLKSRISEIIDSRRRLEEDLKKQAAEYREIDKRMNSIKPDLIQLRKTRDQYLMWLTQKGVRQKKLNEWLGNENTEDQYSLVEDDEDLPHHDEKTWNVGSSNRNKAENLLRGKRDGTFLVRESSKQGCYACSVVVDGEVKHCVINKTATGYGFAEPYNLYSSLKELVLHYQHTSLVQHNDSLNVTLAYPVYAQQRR
Assay: In vitro enzyme inhibition assay (Kinase Glo based enzyme activity assay)
Assay type: biochemical
Details: Test (a), human recombinant enzyme; read-out: PI3Kβ inhibition, IC50
Please provide measured IC50 for the entries that follow.
Give bare numbers, in nM.

Your task in this section: give IC50 for each listed record.
1. CC(Nc1cc(F)cc(F)c1)c1cc(C(=O)N2CCCOCC2)cc2c(=O)cc(N3CCOCC3)oc12 (stereo not drawn)
2. CC(Nc1cc(F)cc(F)c1)c1cc(C(=O)N2CCC[C@@H]2CO)cc2c(=O)cc(N3CCOCC3)oc12 (stereo partly drawn)

1. 5
2. 5

Quick request: IC50 for each listed item, please.
1. CC(Nc1cc(F)cc(F)c1)c1cc(C(=O)N2CCOCC2)cc2c(=O)cc(N3CCOCC3)oc12 (stereo not drawn)
2. CC(Nc1cccc(Cl)c1)c1cc(C(=O)N(C)C)cc2c(=O)cc(N3CCOCC3)oc12 (stereo not drawn)
3. CC(Nc1cc(F)ccc1C#N)c1cc(C(=O)N(C)C)cc2c(=O)cc(N3CCOCC3)oc12 (stereo not drawn)
4. CC(Nc1cc(F)cc(F)c1F)c1cc(C(=O)N(C)C)cc2c(=O)cc(N3CCOCC3)oc12 (stereo not drawn) [Example 3.13]
5. CC(c1cc(C(=O)N2CCC(O)CC2)cc2c(=O)cc(N3CCOCC3)oc12)N(C)c1cc(F)cc(F)c1 (stereo not drawn) [Example 5.01]
6. CC(Nc1ccc(F)cc1)c1cc(C(=O)N(C)CCN(C)C)cc2c(=O)cc(N3CCOCC3)oc12 (stereo not drawn)

[5, 4, 31, 6, 8, 7]

The reported numbers originate from patent US8673906B2.
